Experiment: Human liver microsomal stability of compound in microsomal protein, PBS buffer pH 7.4, NADPH, glucose-6-phosphate and glucose-6-phosphate dehydrogenase media. Aliquotes were taken at 5 time points and after stopping the reaction, supernatants were analyzed using HPLC coupled with a tandem mass spectrometer. The elimination constant, half-life, and intrinsic clearance are determined as results using linear regression analysis. Note: time not given here.
Type: ADME, microsomes, Microsome
Settings: microsomes
METRIC_NAME: Remaining (%)

# COMPOUND_SMILES, Remaining [%]
measured = [
    ("c1ccc2sc(C3CCN(Cc4c[nH]c5ccccc45)CC3)nc2c1", 53.75),
    ("O=C(Nc1cc(Cl)cc(C(=O)Nc2n[nH]c3c2CNC3)c1)OCc1ccccc1", 100.832),
    ("Clc1ccc2[nH]cc(Cc3ccc(-c4nn[nH]n4)cc3)c2c1", 98.893),
]

[I] NCc1cc(C(=O)O)cc([C@@H]2C[C@H]2c2cc(Cl)cc(NC(=O)OCc3ccccc3)c2)c1
[II] O=C(O)c1cc(Cl)ccc1S(=O)(=O)NC1CCN(c2nc(C3CC3)cc(C(F)(F)F)n2)CC1
Q: Parameter check: reported Remaining is higher for which label, I or II ? Pick one; state its label.
Result: I
